- TESTED_ON: Muscarinic acetylcholine receptor M5 (Homo sapiens) (UniProt P08912)
- Sequence (P08912 whole entry, looked up): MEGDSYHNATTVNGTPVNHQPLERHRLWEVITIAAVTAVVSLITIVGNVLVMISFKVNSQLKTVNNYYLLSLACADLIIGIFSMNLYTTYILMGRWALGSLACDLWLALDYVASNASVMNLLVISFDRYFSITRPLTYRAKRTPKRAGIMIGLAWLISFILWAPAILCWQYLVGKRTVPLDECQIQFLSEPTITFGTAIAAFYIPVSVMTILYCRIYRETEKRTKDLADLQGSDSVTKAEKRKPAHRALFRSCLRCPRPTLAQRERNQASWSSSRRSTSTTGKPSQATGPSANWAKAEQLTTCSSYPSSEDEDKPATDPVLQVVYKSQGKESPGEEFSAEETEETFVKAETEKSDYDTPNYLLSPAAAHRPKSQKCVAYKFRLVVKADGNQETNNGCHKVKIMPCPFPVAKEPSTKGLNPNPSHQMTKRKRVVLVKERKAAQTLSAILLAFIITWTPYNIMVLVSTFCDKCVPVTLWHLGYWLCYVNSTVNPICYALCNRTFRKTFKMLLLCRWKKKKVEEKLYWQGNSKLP
- ASSAY_TEXT: human M5 muscarinic receptor antagonists, primary screen, CHO cells, Fluo-8 calcium fluorescence (AID 624040);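 further: 0% = acetylcholine EC80 with DMSO and 100% = DMSO without agonist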
- ASSAY_CONDITIONS: CHO-hM5 cells, ACh EC80, at 3 µM, hits give high values
In all, about 360,000 compounds went through this assay and about 2,100 (0.58%) were called active. This excerpt belongs to a sample that is enriched for actives.
MEASURED_METRIC: inhibition (%)

MOLECULE	MEASURED_METRIC	UNITS_TEXT	MEASURED
CCOC12CC(C)(C)CC(C)(CC3=C1C(=O)CC(C)(C)C3)C2 (stereo not given)	inhibition	%	-1.41
Cc1cccc(N(Cc2ccccc2)C(=O)c2cc(S(=O)(=O)N3CCOCC3)ccc2F)c1	inhibition	%	1.23
COc1ccc2c(c1)[C@H]1[C@H](CO2)[C@H](c2ccccc2)[C@]2(C)C(=O)Nc3cc(F)c(F)cc3C(=O)N12	inhibition	%	11.7
O=S(=O)(Nc1ccccc1)c1ccc(NS(=O)(=O)c2cccs2)cc1	inhibition	%	3.98
Cc1ccc(C)c2[nH]c(=O)c(CCNC(=O)c3cccs3)cc12	inhibition	%	2.31
CCCCCCCCn1c2c(c(=N)c3c1CCC3)CCCC2	inhibition	%	32.9
Cc1cc2cc(CNC(=O)c3ccc(S(=O)(=O)N4CCOCC4)cc3)ccc2[nH]1	inhibition	%	13.1
Cc1ccc(NC(=O)c2ccc(Oc3ncccn3)cc2)cc1	inhibition	%	9.93
Cc1nnc(SCCCCSc2nnc(C)c(=O)[nH]2)[nH]c1=O	inhibition	%	-7.67
COc1ccc(NC(=O)/C(Cl)=C(/Cl)S(=O)Cc2ccc(C)cc2)cn1 (stereo not given)	inhibition	%	34.9
